# melting point values compiled below
quantity measured: melting point

{"line notation": "CC(=O)O.COc1cc(OC)c([N+](=O)[O-])cc1C=NNC(=N)N", "quantity measured": "melting point", "measurement": "207 to 210 °C"}
{"line notation": "COc1cc([N+](=O)[O-])cc(C=NNC(=N)NO)c1OC.Cl", "quantity measured": "melting point", "measurement": "196 to 197.5 °C"}
{"line notation": "CC(=O)O.COc1cc(C=NNC(=N)N)cc(OC)c1OC", "quantity measured": "melting point", "measurement": "223 to 225 °C"}
{"line notation": "COc1cc([N+](=O)[O-])cc(C=NNC(=N)N)c1OC.Cl", "quantity measured": "melting point", "measurement": "237 to 238 °C"}
{"line notation": "CC(=O)O.COc1cc([N+](=O)[O-])c([N+](=O)[O-])c(C=NNC(=N)N)c1OC", "quantity measured": "melting point", "measurement": "165 to 171 °C"}
{"line notation": "CC(=O)O.COc1ccc(C=NNC(=N)N)cc1[N+](=O)[O-]", "quantity measured": "melting point", "measurement": "144 to 147 °C"}

====

# melting point values compiled below

{"line notation": "COc1cc([N+](=O)[O-])cc(C=NNC(=N)N)c1O.Cl", "melting point": "243 to 246 °C"}
{"line notation": "CC(=O)O.COc1cc(Cl)c([N+](=O)[O-])cc1C=NNC(=N)N", "melting point": "196 to 199 °C"}
{"line notation": "CC(=O)O.COc1ccc(C=NNC(=N)N)c(Cl)c1OC", "melting point": "198 to 200 °C"}
{"line notation": "CC(=O)O.N=C(N)NN=Cc1cc(F)cc(F)c1[N+](=O)[O-]", "melting point": "231 to 233 °C"}
{"line notation": "CC(=O)O.COc1c(Cl)cc(C=NNC(=N)N)cc1Cl", "melting point": "185 to 190 °C"}
{"line notation": "CC(=O)O.Cc1ccc(C=NNC(=N)N)c([N+](=O)[O-])c1O", "melting point": "240 to 241 °C"}

====

# melting point values compiled below

{"compound": "CC(=O)O.N=C(N)NN=Cc1ccc(Br)cc1F", "melting point": "187 to 188 °C"}
{"compound": "COc1ccc([N+](=O)[O-])c(C=NNC(=N)N)c1[N+](=O)[O-].Cl", "melting point": "217 to 218 °C"}
{"compound": "CC(=O)O.COc1cc([N+](=O)[O-])cc(C=NNC(=N)N)c1OC", "melting point": "191 to 194 °C"}
{"compound": "CC(=O)O.N=C(N)NN=Cc1ccc(Br)c([N+](=O)[O-])c1", "melting point": "152 to 153 °C"}
{"compound": "CC(=O)O.N=C(N)NN=Cc1ccc(F)c(Br)c1", "melting point": "172 to 173.5 °C"}
{"compound": "N=C(NO)NN=Cc1ccccc1S(=O)(=O)O", "melting point": "243.5 to 244 °C"}
{"compound": "COc1ccc(C=NNC(=N)N)cc1Br.Cl", "melting point": "261 to 262.5 °C"}
{"compound": "CC(=O)O.N=C(N)NN=Cc1cccc(F)c1F", "melting point": "149 to 151.5 °C"}
{"compound": "CC(=O)O.N=C(N)NN=Cc1cc([N+](=O)[O-])cc([N+](=O)[O-])c1.O.O (hydrate or solvate)", "melting point": "251 to 254 °C (dec.)"}
{"compound": "Cc1cc([N+](=O)[O-])c(C=NNC(=N)N)cc1Br.Cl", "melting point": "246.5 to 248 °C"}
{"compound": "CC(=O)O.N=C(N)NN=Cc1cc(Cl)cc(Cl)c1[N+](=O)[O-]", "melting point": "88 to 91 °C"}
{"compound": "CC(=O)O.N=C(N)NN=Cc1ccc([N+](=O)[O-])cc1[N+](=O)[O-]", "melting point": "224 to 226 °C"}
{"compound": "COc1ccc(C=NNC(=N)N)c(OC)c1OC.Cl", "melting point": "181 to 183 °C"}
{"compound": "CC(=O)O.N=C(N)NN=Cc1ccc(F)c([N+](=O)[O-])c1", "melting point": "222 to 224 °C (dec.)"}
{"compound": "CC(=O)O.COc1ccc(C=NNC(=N)N)c(O)c1", "melting point": "161 to 164 °C"}
{"compound": "CC(=O)O.N=C(N)NN=Cc1cc(Cl)cc([N+](=O)[O-])c1Br", "melting point": "136.5 to 137 °C"}
{"compound": "Cc1cc(O)c(C=NNC(=N)N)cc1[N+](=O)[O-].Cl", "melting point": "229 to 230 °C"}
{"compound": "COc1c(C=NNC(=N)N)cc(Br)cc1[N+](=O)[O-].Cl", "melting point": "258 to 259 °C"}
{"compound": "CC(=O)O.COc1c(C)cc(C=NNC(=N)N)cc1Br", "melting point": "163 to 166 °C"}
{"compound": "CC(=O)O.N=C(N)NN=Cc1cc([N+](=O)[O-])c(Br)cc1F", "melting point": "175 to 198 °C (dec.)"}
{"compound": "CC(=O)O.N=C(N)NN=Cc1cc([N+](=O)[O-])ccc1Cl", "melting point": "222 to 224 °C (dec.)"}
{"compound": "CC(=O)O.N=C(N)NN=Cc1c(Cl)ccc(Cl)c1[N+](=O)[O-]", "melting point": "219.5 to 221 °C"}
{"compound": "Cl.N=C(N)NN=Cc1cccc(I)c1", "melting point": "203 to 204 °C"}

====

This section lists Ki readings for UniProt:P33032.
Sequence (P33032 whole entry): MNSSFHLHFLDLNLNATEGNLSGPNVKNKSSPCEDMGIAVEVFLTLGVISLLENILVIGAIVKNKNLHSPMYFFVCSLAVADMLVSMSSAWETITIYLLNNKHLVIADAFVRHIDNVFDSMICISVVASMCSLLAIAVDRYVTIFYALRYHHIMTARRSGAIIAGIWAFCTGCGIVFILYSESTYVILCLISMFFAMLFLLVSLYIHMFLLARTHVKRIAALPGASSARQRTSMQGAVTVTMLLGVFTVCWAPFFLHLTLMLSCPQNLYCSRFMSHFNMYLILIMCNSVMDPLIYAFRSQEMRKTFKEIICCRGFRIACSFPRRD

{"compound": "Cc1ccc(S(=O)(=O)O)cc1.N=C(NO)NN=Cc1cc(Cl)ccc1[N+](=O)[O-] [1:4, tosylate]", "endpoint unit": "µM", "Ki": 33}
{"compound": "COc1ccc(C=NNC(=N)NO)cc1Br.Cc1ccc(S(=O)(=O)O)cc1 [1:3, tosylate]", "endpoint unit": "µM", "Ki": 47}

====

This section lists Ki readings for MC1-receptor (Mus musculus, UniProt Q01727).
quantity measured: Ki (µM)

{"compound": "Cc1ccc(S(=O)(=O)O)cc1.N=C(NO)NN=Cc1cc(Cl)ccc1[N+](=O)[O-] [1:4, tosylate]", "endpoint unit": "µM", "measurement": 42}
{"compound": "COc1ccc(C=NNC(=N)NO)cc1Br.Cc1ccc(S(=O)(=O)O)cc1 [1:3, tosylate]", "endpoint unit": "µM", "measurement": 42}

====

{"line notation": "CC(=O)O.N=C(N)NN=Cc1cc([N+](=O)[O-])ccc1F", "melting point": "192 to 195 °C"}
{"line notation": "COc1ccc(C=NNC(=N)NO)cc1[N+](=O)[O-]", "melting point": "219 to 221 °C"}
{"line notation": "CC(=O)O.COc1cc(O)c(C=NNC(=N)N)c(OC)c1", "melting point": "115 to 118 °C"}
{"line notation": "Cl.N=C(N)NN=Cc1c([N+](=O)[O-])ccc(Br)c1[N+](=O)[O-]", "melting point": "166.5 to 168 °C"}
{"line notation": "CC(=O)O.COc1c(Cl)cc(C=NNC(=N)N)cc1[N+](=O)[O-]", "melting point": "255 to 258 °C (dec.)"}
{"line notation": "CC(=O)O.N=C(N)NN=Cc1c(F)cccc1F", "melting point": "138.5 to 141 °C"}
{"line notation": "Cl.N=C(N)NN=Cc1cc(Br)cc([N+](=O)[O-])c1O", "melting point": "> 250 °C"}
{"line notation": "CC(=O)O.N=C(N)NN=Cc1ccc(F)c(F)c1", "melting point": "176 to 178 °C"}
{"line notation": "CC(=O)O.COc1cc(OC)c(C=NNC(=N)N)c(OC)c1", "melting point": "66 to 68 °C"}
{"line notation": "Cl.N=C(N)NN=Cc1ccccc1S(=O)(=O)O", "melting point": "> 260 °C"}
{"line notation": "Cl.N=C(N)NN=Cc1c(Cl)ccc([N+](=O)[O-])c1[N+](=O)[O-]", "melting point": "153 to 154.5 °C"}
